- Tested on: Aspergillus niger
- measurement_description: Antimicrobial activity against Aspergillus niger NCIM 596 at 200 ug/disk after 48 hrs by agar disc-diffusion method
- Assay type: functional
- experimental_parameters: NCIM 596, 48 h, read-out: DIZ
Classify as follows. Reported zone of inhibition at 200 µg/disc greater than or equal to 20 mm: yes. Reported zone of inhibition at 200 µg/disc below: no.

[[record]]
molecule = "CC(=O)N1CCN(c2ccc(OCC3COC(Cn4ccnc4)(c4ccc(Cl)cc4Cl)O3)cc2)CC1 (stereo not drawn)"
cat = "yes"

[[record]]
molecule = "Cc1ccc(NS(=O)(=O)Cc2nnc(CS(=O)(=O)c3ccc(C)cc3)s2)cc1"
cat = "yes"

[[record]]
molecule = "Cc1ccc(NS(=O)(=O)Cc2nnc(-c3ccc(C)cc3)s2)cc1"
cat = "no"

[[record]]
molecule = "O=S(=O)(Cc1nnc(-c2ccc(Cl)cc2)o1)Nc1ccc(Cl)cc1"
cat = "no"

[[record]]
molecule = "Cc1ccc(NS(=O)(=O)Cc2nnc(-c3ccc(C)cc3)o2)cc1"
cat = "no"

[[record]]
molecule = "O=S(=O)(Cc1nnc(-c2ccccc2)s1)Nc1ccccc1"
cat = "yes"

[[record]]
molecule = "O=S(=O)(Cc1nnc(-c2ccccc2)o1)Nc1ccccc1"
cat = "no"

[[record]]
molecule = "O=S(=O)(Cc1nnc(CS(=O)(=O)c2ccc(Cl)cc2)s1)Nc1ccc(Cl)cc1"
cat = "yes"

[[record]]
molecule = "O=S(=O)(Cc1nnc(-c2ccc(Cl)cc2)s1)Nc1ccc(Cl)cc1"
cat = "yes"

[[record]]
molecule = "Cc1ccc(NS(=O)(=O)Cc2nnc(CS(=O)(=O)c3ccc(C)cc3)o2)cc1"
cat = "no"

[[record]]
molecule = "O=S(=O)(Cc1nnc(CS(=O)(=O)c2ccc(Cl)cc2)o1)Nc1ccc(Cl)cc1"
cat = "no"

[[record]]
molecule = "O=S(=O)(Cc1nnc(CS(=O)(=O)c2ccccc2)o1)Nc1ccccc1"
cat = "no"

[[record]]
molecule = "O=S(=O)(Cc1nnc(CS(=O)(=O)c2ccccc2)s1)Nc1ccccc1"
cat = "yes"


###

Listed molecules paired with reported MIC
- Test system: Aspergillus niger
- measurement_description: Antimicrobial activity against Aspergillus niger NCIM 596 after 48 hrs by microdilution susceptibility method
- Assay type: functional
- experimental_parameters: NCIM 596, 48 h
reported_endpoint: MIC (µg/mL)

[[record]]
molecule = "Cc1ccc(NS(=O)(=O)Cc2nnc(CS(=O)(=O)c3ccc(C)cc3)s2)cc1"
output_unit = "µg/mL"
numeric_readout = 100

[[record]]
molecule = "O=S(=O)(Cc1nnc(CS(=O)(=O)c2ccc(Cl)cc2)s1)Nc1ccc(Cl)cc1"
output_unit = "µg/mL"
numeric_readout = 50

[[record]]
molecule = "O=S(=O)(Cc1nnc(CS(=O)(=O)c2ccccc2)s1)Nc1ccccc1"
output_unit = "µg/mL"
numeric_readout = 50

[[record]]
molecule = "O=S(=O)(Cc1nnc(-c2ccc(Cl)cc2)s1)Nc1ccc(Cl)cc1"
output_unit = "µg/mL"
numeric_readout = 200

[[record]]
molecule = "CC(=O)N1CCN(c2ccc(OCC3COC(Cn4ccnc4)(c4ccc(Cl)cc4Cl)O3)cc2)CC1 (stereo not given)"
output_unit = "µg/mL"
numeric_readout = 6.25


###

- Test system: Curvularia lunata
- measurement_description: Antimicrobial activity against Curvularia lunata NCIM 716 at 100 ug/disk after 48 hrs by agar disc-diffusion method
- Type: functional
- experimental_parameters: NCIM 716, 48 h, read-out: DIZ
Parameter zone of inhibition at 100 µg/disc: see the listing below.
reported_endpoint: zone of inhibition at 100 µg/disc (mm)

[[record]]
molecule = "O=S(=O)(Cc1nnc(-c2ccccc2)s1)Nc1ccccc1"
target_desc = "Curvularia lunata"
reported_endpoint = "zone of inhibition at 100 µg/disc"
numeric_readout = 24

[[record]]
molecule = "O=S(=O)(Cc1nnc(CS(=O)(=O)c2ccccc2)s1)Nc1ccccc1"
target_desc = "Curvularia lunata"
reported_endpoint = "zone of inhibition at 100 µg/disc"
numeric_readout = 30

[[record]]
molecule = "Cc1ccc(NS(=O)(=O)Cc2nnc(-c3ccc(C)cc3)o2)cc1"
target_desc = "Curvularia lunata"
reported_endpoint = "zone of inhibition at 100 µg/disc"
numeric_readout = 14

[[record]]
molecule = "Cc1ccc(NS(=O)(=O)Cc2nnc(-c3ccc(C)cc3)s2)cc1"
target_desc = "Curvularia lunata"
reported_endpoint = "zone of inhibition at 100 µg/disc"
numeric_readout = 21

[[record]]
molecule = "Cc1ccc(NS(=O)(=O)Cc2nnc(CS(=O)(=O)c3ccc(C)cc3)o2)cc1"
target_desc = "Curvularia lunata"
reported_endpoint = "zone of inhibition at 100 µg/disc"
numeric_readout = 15

[[record]]
molecule = "CC(=O)N1CCN(c2ccc(OCC3COC(Cn4ccnc4)(c4ccc(Cl)cc4Cl)O3)cc2)CC1 (stereo not drawn)"
target_desc = "Curvularia lunata"
reported_endpoint = "zone of inhibition at 100 µg/disc"
numeric_readout = 41

[[record]]
molecule = "O=S(=O)(Cc1nnc(-c2ccccc2)o1)Nc1ccccc1"
target_desc = "Curvularia lunata"
reported_endpoint = "zone of inhibition at 100 µg/disc"
numeric_readout = 13

[[record]]
molecule = "O=S(=O)(Cc1nnc(CS(=O)(=O)c2ccc(Cl)cc2)o1)Nc1ccc(Cl)cc1"
target_desc = "Curvularia lunata"
reported_endpoint = "zone of inhibition at 100 µg/disc"
numeric_readout = 14

